Target: Trypanothione reductase (Leishmania infantum, UniProt A4HSF7)
Sequence (A4HSF7 whole entry): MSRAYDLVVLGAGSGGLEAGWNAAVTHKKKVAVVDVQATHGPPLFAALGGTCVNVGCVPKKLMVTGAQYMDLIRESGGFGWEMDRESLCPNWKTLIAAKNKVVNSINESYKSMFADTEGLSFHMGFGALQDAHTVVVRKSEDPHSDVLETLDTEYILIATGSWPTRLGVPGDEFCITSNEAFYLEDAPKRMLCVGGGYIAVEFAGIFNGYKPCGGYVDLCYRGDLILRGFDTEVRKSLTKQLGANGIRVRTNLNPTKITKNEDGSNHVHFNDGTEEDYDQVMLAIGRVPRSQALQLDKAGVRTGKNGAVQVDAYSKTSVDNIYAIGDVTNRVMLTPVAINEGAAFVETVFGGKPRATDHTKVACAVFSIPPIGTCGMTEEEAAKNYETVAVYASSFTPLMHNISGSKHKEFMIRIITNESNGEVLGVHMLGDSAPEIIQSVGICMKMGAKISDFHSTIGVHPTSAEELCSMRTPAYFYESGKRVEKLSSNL
Experiment: Competitive inhibition of HIS-FLAG-tagged recombinant Leishmania infantum TryR expressed in Escherichia coli assessed as dissociation constant by SPR assay
pKd: −log10 of the molar value.
reportedMetric: pKd

smiles	tgt	reportedMetric	recordedNumber
C[n+]1nn(-c2ccc(-c3nc(CCc4ccccc4)cs3)c(OCCN3CCNC3=O)c2)cc1CCCCN.O=C(O)C(F)(F)F.O=S(=O)([O-])C(F)(F)F	Trypanothione reductase (Leishmania infantum, UniProt A4HSF7)	pKd	6.00

* * *

Recorded pIC50 by entry
Target: Trypanothione reductase (Trypanosoma brucei brucei, UniProt P39051)
Sequence (P39051 whole entry): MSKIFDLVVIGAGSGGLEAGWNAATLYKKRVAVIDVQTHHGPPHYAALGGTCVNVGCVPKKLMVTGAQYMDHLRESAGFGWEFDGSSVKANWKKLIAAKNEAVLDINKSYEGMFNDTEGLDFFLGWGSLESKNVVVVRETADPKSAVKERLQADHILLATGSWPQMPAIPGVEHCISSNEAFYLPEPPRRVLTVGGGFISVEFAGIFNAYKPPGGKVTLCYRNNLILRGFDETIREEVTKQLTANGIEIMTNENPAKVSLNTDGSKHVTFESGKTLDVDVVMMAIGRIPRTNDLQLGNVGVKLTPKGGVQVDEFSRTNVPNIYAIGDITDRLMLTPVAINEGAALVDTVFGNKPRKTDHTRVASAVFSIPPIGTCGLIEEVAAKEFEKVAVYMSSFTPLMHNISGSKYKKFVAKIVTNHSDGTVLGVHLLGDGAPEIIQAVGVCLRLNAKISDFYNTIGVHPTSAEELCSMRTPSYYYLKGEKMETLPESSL
Experiment: Inhibition of HIS-tagged recombinant Trypanosoma brucei TryR oxidoreductase activity expressed in Escherichia coli in the presence of NADPH by spectrophotometry based DTNB-coupled assay
pIC50: −log10 of the molar value.

smiles	tgt	pIC50
C[n+]1nn(-c2ccc(-c3nc(CCc4ccc(-c5ccccc5)cc4)cs3)c(OCCN3CCNC3=O)c2)cc1CCCCN.O=C(O)C(F)(F)F.O=S(=O)([O-])C(F)(F)F	Trypanothione reductase (Trypanosoma brucei brucei, UniProt P39051)	5.31
C[n+]1nn(-c2ccc(-c3nc(CCc4ccccc4)cs3)c(OCCN3CCNC3=O)c2)cc1CCCCN.O=C(O)C(F)(F)F.O=S(=O)([O-])C(F)(F)F	Trypanothione reductase (Trypanosoma brucei brucei, UniProt P39051)	4.57
C[n+]1nn(-c2ccc(-c3nc(CCc4ccc5ccccc5c4)cs3)c(OCCN3CCNC3=O)c2)cc1CCCCN.O=C(O)C(F)(F)F.O=S(=O)([O-])C(F)(F)F	Trypanothione reductase (Trypanosoma brucei brucei, UniProt P39051)	5.29

* * *

CC50 at 72 h values by entry
Test: Cytotoxicity against human HepG2 cells assessed as reduction in cell proliferation measured after 72 hrs by crystal violet staining based analysis
Format: toxicity
reportedMetric: CC50 at 72 h (µM)

molecule	reportedMetric	endpointUnit	cmp	recordedNumber
C[n+]1nn(-c2ccc(-c3nc(-c4ccc(Oc5ccccc5)cc4)c(-c4ccccc4)s3)c(OCCN3CCNC3=O)c2)cc1CCCCN	CC50 at 72 h	µM	=	42.6
C[n+]1nn(-c2ccc(-c3nc(CCc4ccc5ccccc5c4)cs3)c(OCCN3CCNC3=O)c2)cc1CCCCN.O=C(O)C(F)(F)F.O=S(=O)([O-])C(F)(F)F	CC50 at 72 h	µM	>	75
CC[n+]1nn(-c2ccc(-c3nc(CCc4ccc(-c5ccccc5)cc4)cs3)c(OCCN3CCNC3=O)c2)cc1CCCCN	CC50 at 72 h	µM	=	63.8
C[n+]1nn(-c2ccc(-c3nc(CCc4ccc(-c5ccccc5)cc4)cs3)c(OCCN3CCNC3=O)c2)cc1CCCN.O=C(O)C(F)(F)F.O=S(=O)([O-])C(F)(F)F	CC50 at 72 h	µM	>	75
C[n+]1nn(-c2ccc(-c3nc(-c4ccc(-c5ccccc5)cc4)c(-c4ccccc4)s3)c(OCCN3CCNC3=O)c2)cc1CCCCN	CC50 at 72 h	µM	=	34.5
NCCCCc1cn(-c2ccc(-c3nc(CCc4ccc(-c5ccccc5)cc4)cs3)c(OCCN3CCNC3=O)c2)nn1.O=C(O)C(F)(F)F	CC50 at 72 h	µM	=	40.5
CCCCCCCCCCCCCCCCOP(=O)([O-])OCC[N+](C)(C)C [MILTEFOSINE]	CC50 at 72 h	µM	>	75
NCCCCc1cn(-c2ccc(-c3nc(CCc4ccccc4)cs3)c(OCCN3CCNC3=O)c2)nn1.O=C(O)C(F)(F)F	CC50 at 72 h	µM	=	27.8
C[n+]1nn(-c2ccc(-c3nc(CCc4ccc(-c5ccccc5)cc4)cs3)c(OCCN3CCNC3=O)c2)cc1CCCCN.O=C(O)C(F)(F)F.O=S(=O)([O-])C(F)(F)F	CC50 at 72 h	µM	>	75
C[n+]1nn(-c2ccc(-c3nc(-c4ccccc4)c(-c4ccccc4)s3)c(OCCN3CCNC3=O)c2)cc1CCCCN	CC50 at 72 h	µM	>	75

* * *

Molecular target: Trypanothione reductase (Leishmania infantum)
Experiment: Mixed non-competitive inhibition of Leishmania infantum TryR using TS2 as substrate assessed as inhibition constant of two-step induced-fit mechanism by plot analysis
pKi: −log10 of the molar value.

smiles	pKi
C[n+]1nn(-c2ccc(-c3nc(CCc4ccc(-c5ccccc5)cc4)cs3)c(OCCN3CCNC3=O)c2)cc1CCCCN.O=C(O)C(F)(F)F.O=S(=O)([O-])C(F)(F)F	6.70

* * *

Assay: Cytotoxicity against human HepG2 cells assessed as reduction in cell proliferation measured after 72 hrs by crystal violet staining based analysis
Assay type: toxicity
Reported CC50 at 72 h by item:
reportedMetric: CC50 at 72 h (µM)

smiles	endpointUnit	cmp	recordedNumber
NCCCc1cn(-c2ccc(-c3nc(CCc4ccc(-c5ccccc5)cc4)cs3)c(OCCN3CCNC3=O)c2)nn1.O=C(O)C(F)(F)F	µM	=	37.3
NCCCCc1cn(-c2ccc(-c3nc(-c4ccccc4)c(-c4ccccc4)s3)c(OCCN3CCNC3=O)c2)nn1	µM	>	75
NCCCCc1cn(-c2ccc(-c3nc(CCc4cccc5ccccc45)cs3)c(OCCN3CCNC3=O)c2)nn1.O=C(O)C(F)(F)F	µM	>	29
C[n+]1nn(-c2ccc(-c3nc(CCc4ccc(-c5ccccc5)cc4)c(-c4ccccc4)s3)c(OCCN3CCNC3=O)c2)cc1CCCCN	µM	=	54.5

* * *

Recorded selectivity ratio for the following molecules
Assay: Selectivity index, ratio of CC50 for human HepG2 cells to EC50 for Leishmania infantum MCAN/ES/89/IPZ229/1/89 axenic amastigotes
Assay type: toxicity
Settings: read-out: Ratio CC50/EC50

smiles	selectivity ratio
C[n+]1nn(-c2ccc(-c3nc(CCc4ccc(-c5ccccc5)cc4)cs3)c(OCCN3CCNC3=O)c2)cc1CCCCN.O=C(O)C(F)(F)F.O=S(=O)([O-])C(F)(F)F	> 6.5
C[n+]1nn(-c2ccc(-c3nc(CCc4ccc(-c5ccccc5)cc4)c(-c4ccccc4)s3)c(OCCN3CCNC3=O)c2)cc1CCCCN	7.8
C[n+]1nn(-c2ccc(-c3nc(CCc4ccc(-c5ccccc5)cc4)cs3)c(OCCN3CCNC3=O)c2)cc1CCCN.O=C(O)C(F)(F)F.O=S(=O)([O-])C(F)(F)F	> 15.6
C[n+]1nn(-c2ccc(-c3nc(CCc4ccccc4)cs3)c(OCC3CCNCC3)c2)cc1CCCCN	> 2.6
C[n+]1nn(-c2ccc(-c3nc(-c4ccc(Oc5ccccc5)cc4)c(-c4ccccc4)s3)c(OCCN3CCNC3=O)c2)cc1CCCCN	> 6.1
C[n+]1nn(-c2ccc(-c3nc(CCc4ccccc4)cs3)c(OCCC3CCNCC3)c2)cc1CCCCN	< 1
C[n+]1nn(-c2ccc(-c3nc(-c4ccccc4)c(-c4ccccc4)s3)c(OCCN3CCNC3=O)c2)cc1CCCCN	> 5.8
